Here the recorded x-fold Koff improvement is given for each entry.
Molecular target: human NKp30 (human) (UniProt O14931)
Sequence (O14931 19-135 limits assumed): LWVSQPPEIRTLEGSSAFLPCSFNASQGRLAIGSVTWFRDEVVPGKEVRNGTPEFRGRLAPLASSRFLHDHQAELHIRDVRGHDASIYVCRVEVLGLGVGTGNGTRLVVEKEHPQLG
Test: BLI, ratio to ΔB7-H6_wt
# unit: fold | format: bare number

{"binder": "ΔB7-H6_S3#27-SEED-PGLALA (bispecific antibody, part only; not given: SEED Fc chains and hu225 EGFR Fab, part only) chain, part: DLKVEMMAGGTQITPLNDNVTIFCNIFYSQPLNITTMGITWFWKSLTFDKEVKVFEFWGDHQEAFRPGAIVSPWRLKSGDASLRLPGIQLEEAGEYRCEVIVTPYKAQGTVQLEVVASPAS", "unit": "fold", "x-fold Koff improvement": 3}
{"binder": "ΔB7-H6_S3#31-SEED-PGLALA (bispecific antibody, part only; not given: SEED Fc chains and hu225 EGFR Fab, part only) chain, part: DLKVEMMAGGTQITPLNDNVTIFCNIFYSQPLNITIMGITWFWKSLTFDKEVKVFEFYGDHQEAFRPGAIVSPWRLKSGDASLRLPGIQLEEAGEYRCEVVVTPLKAQGTVQLEVVASPAS", "unit": "fold", "x-fold Koff improvement": 6.3}
{"binder": "ΔB7-H6_S2#2-SEED-PGLALA (bispecific antibody, part only; not given: SEED Fc chains and hu225 Fab, part only) chain, part: DLKVEMMAGGTQITPLNDNVTIFCNIFYSQPLNITSMGITWFWKSLTFDKEVKVFEFWDDHQEAFRPGAIVSPWRLKSGDASLRLPGIQLEEAGEYRCEVVVTPYKAQGTVQLEVVASPAS", "unit": "fold", "x-fold Koff improvement": 2.3}

Respond only with x-fold Koff improvement recorded for ΔB7-H6_S3#26-SEED-PGLALA (bispecific antibody, part only; not given: SEED Fc chains and hu225 Fab, part only) chain, part: DLKVEMMAGGTQITPLNDNVTIFCNIFYSQPLNITTMGITWFWKSLTFDKEVKVFEFWDDHQEAFRPGAIVSPWRLKSGDASLRLPGIQLEEAGEYRCEVVVTPYKAQGTVQLEVVASPAS
3.6
